- assay notes: Oral bioavailability from crystalline suspension in dog (plasma PK, LC/MS/MS)
- Format: in vivo, beagle dogs
- experimental setup: male, beagle, dog, plasma, po, 3 mg/kg, PO 3 mg/kg suspension, dog plasma, individual dogs
property label: half-life (h)

molecule	property label	unit info	recorded measurement
CNC(=O)c1c(O)c2ncc(Cc3ccc(F)cc3)c3c2n(c1=O)C[C@](C)(c1nnc(C)o1)O3 [Compound (Ia)]	half-life	h	4.16

---

- assay notes: Oral bioavailability from crystalline suspension in dog (plasma PK, LC/MS/MS)
- Type: in vivo, beagle dogs
- experimental setup: male, beagle, dog, plasma, po, 3 mg/kg, PO 3 mg/kg suspension, dog plasma, mean n = 3

smiles text	unit info	Cmax
CNC(=O)c1c(O)c2ncc(Cc3ccc(F)cc3)c3c2n(c1=O)C[C@](C)(c1nnc(C)o1)O3	µM	3.3

---

- assay notes: Oral bioavailability from crystalline suspension in dog (plasma PK, LC/MS/MS)
- Assay type: in vivo, beagle dogs
- experimental setup: male, beagle, dog, plasma, po, 3 mg/kg, PO 3 mg/kg suspension, dog plasma, mean n = 3

smiles text	AUC(0-inf) / µM·h
CNC(=O)c1c(O)c2ncc(Cc3ccc(F)cc3)c3c2n(c1=O)C[C@](C)(c1nnc(C)o1)O3	18.6

---

- assay notes: Oral bioavailability from crystalline suspension in dog (plasma PK, LC/MS/MS)
- Assay type: in vivo, beagle dogs
- experimental setup: male, beagle, dog, plasma, po, 4 mg/kg, PO 4 mg/kg suspension, dog plasma, individual dogs
property label: half-life (h)

compound	recorded measurement
CNC(=O)c1c(O)c2ncc(Cc3ccc(F)cc3)c3c2n(c1=O)C[C@H](C(=O)NC)O3 [Comparator Compound, reference compound]	2.97

---

- assay notes: Oral bioavailability from crystalline suspension in dog (plasma PK, LC/MS/MS)
- Format: in vivo, beagle dogs
- experimental setup: male, beagle, dog, plasma, po, 3 mg/kg, PO 3 mg/kg suspension, dog plasma, individual dogs
property label: AUC(0-inf) (µM·h)

smiles text	recorded measurement
CNC(=O)c1c(O)c2ncc(Cc3ccc(F)cc3)c3c2n(c1=O)C[C@](C)(c1nnc(C)o1)O3	19.3

---

- assay notes: Oral bioavailability from crystalline suspension in dog (plasma PK, LC/MS/MS)
- Assay type: in vivo, beagle dogs
- experimental setup: male, beagle, dog, plasma, po, 4 mg/kg, PO 4 mg/kg suspension, dog plasma, individual dogs

compound	AUC(0-inf)
CNC(=O)c1c(O)c2ncc(Cc3ccc(F)cc3)c3c2n(c1=O)C[C@H](C(=O)NC)O3 [Comparator Compound, reference compound]	0.427 µM·h

---

- assay notes: Oral bioavailability from crystalline suspension in dog (plasma PK, LC/MS/MS)
- Assay type: in vivo, beagle dogs
- experimental setup: male, beagle, dog, plasma, po, 3 mg/kg, PO 3 mg/kg suspension, dog plasma, mean n = 3; read-out: AUClast
property label: AUC(0-t) (µM·h)

compound	property label	unit info	recorded measurement
CNC(=O)c1c(O)c2ncc(Cc3ccc(F)cc3)c3c2n(c1=O)C[C@](C)(c1nnc(C)o1)O3 [Compound (Ia)]	AUC(0-t)	µM·h	18.3

---

- assay notes: Oral bioavailability from crystalline suspension in dog (plasma PK, LC/MS/MS)
- Format: in vivo, beagle dogs
- experimental setup: male, beagle, dog, plasma, po, 3 mg/kg, PO 3 mg/kg suspension, dog plasma, individual dogs

compound	unit info	Cmax
CNC(=O)c1c(O)c2ncc(Cc3ccc(F)cc3)c3c2n(c1=O)C[C@](C)(c1nnc(C)o1)O3 [Compound (Ia)]	µM	3.16

These measurements were taken from patent US20110223131A1.
